Biological target: T1, cynomolgus monkey CD40 on cells (cynomolgus monkey, UniProt G7PG38 21-278)
T1 construct: also called cyCD40; CHO-K1/cyCD40
T1 sequence (G7PG38 entry or part of it limits assumed): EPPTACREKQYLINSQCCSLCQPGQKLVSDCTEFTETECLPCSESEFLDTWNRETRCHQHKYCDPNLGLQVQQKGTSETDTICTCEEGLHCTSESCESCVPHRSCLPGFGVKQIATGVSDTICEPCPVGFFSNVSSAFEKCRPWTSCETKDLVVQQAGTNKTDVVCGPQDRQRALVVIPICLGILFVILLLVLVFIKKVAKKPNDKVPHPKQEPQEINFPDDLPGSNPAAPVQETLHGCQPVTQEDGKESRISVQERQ
Test: FACS, CHO-K1/cyCD40 cells
Below, each entry is listed alongside its reported Maximum MFI.
Give just the number in MFI; leave the unit off.

[[record]]
binder = "PR006504 (antibody, human IgG1, kappa, V domains shown, PR003379 variant L:N92V; human IgG1 L234A, L235A, G237A) VH: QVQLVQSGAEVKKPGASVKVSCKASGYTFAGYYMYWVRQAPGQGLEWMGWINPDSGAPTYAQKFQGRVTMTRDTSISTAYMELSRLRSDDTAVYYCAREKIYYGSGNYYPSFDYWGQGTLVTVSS VL: DIQLTQSPSFLSASVGDRVTITCRASQGISSYLAWYQQKPGKAPKLLIYAASTLQSGVPSRFSGSGSGTEFTLTISSLQPEDFATYYCQQLVSYPWTFGQGTKVEIKR"
data_value = 51000


Query: Assign Maximum MFI to the following record: PR006505 (antibody, human IgG1, kappa, V domains shown, PR003379 variant L:S93I; human IgG1 L234A, L235A, G237A) VH: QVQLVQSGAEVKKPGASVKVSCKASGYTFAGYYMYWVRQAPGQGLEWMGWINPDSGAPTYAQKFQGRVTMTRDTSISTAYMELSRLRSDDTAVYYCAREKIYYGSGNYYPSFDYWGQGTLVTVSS VL: DIQLTQSPSFLSASVGDRVTITCRASQGISSYLAWYQQKPGKAPKLLIYAASTLQSGVPSRFSGSGSGTEFTLTISSLQPEDFATYYCQQLNIYPWTFGQGTKVEIKR
Response: 48100

Query: Assign Maximum MFI to the following record: PR006506 (antibody, human IgG1, kappa, V domains shown, PR003379 variant L:S93F; human IgG1 L234A, L235A, G237A) VH: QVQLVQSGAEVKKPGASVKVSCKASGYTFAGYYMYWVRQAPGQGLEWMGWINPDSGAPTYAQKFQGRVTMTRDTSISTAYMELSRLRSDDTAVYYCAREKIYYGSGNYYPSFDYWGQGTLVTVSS VL: DIQLTQSPSFLSASVGDRVTITCRASQGISSYLAWYQQKPGKAPKLLIYAASTLQSGVPSRFSGSGSGTEFTLTISSLQPEDFATYYCQQLNFYPWTFGQGTKVEIKR
Response: 47300
